Origin of the recorded values: patent US20220380368A1

Experiment: Mouse PK studies after oral and IV dosing
Format: in vivo
Conditions: PO 3 mg/kg vs IV 1 mg/kg
F overview
API: value field is a number in %; no unit string.

Take a look at these entries with their results.
- C[C@H]1CC2(CCN(c3ccc(C(=O)N4CCN(C5CN(c6ccc7c(c6)CN(C6CCC(=O)NC6=O)C7=O)C5)CC4)cc3)CC2)CN1c1ccc(C#N)c(Cl)c1 (some centres unmarked) [Cpd. No. 346]: 32
- C[C@H]1CC2(CCN(c3ccc(C(=O)N4CCC(CN5Cc6cc7c(cc6C5)C(=O)N(C5CCC(=O)NC5=O)C7=O)CC4)nn3)CC2)CN1c1ccc(C#N)c(Cl)c1 (some centres unmarked) [Cpd. No. 496]: 72
- C[C@H]1CC2(CCN(c3ccc(C(=O)N4CCN(C5CCN(c6ccc7c(c6)C(=O)N(C6CCC(=O)NC6=O)C7=O)CC5)CC4)cc3)CC2)CN1c1ccc(C#N)c(Cl)c1 (some centres unmarked) [Cpd. No. 302]: 27
- C[C@H]1CC2(CCN(c3ccc(C(=O)N4CCN(CC5CN(c6cc7c(cc6F)C(=O)N(C6CCC(=O)NC6=O)C7=O)C5)CC4)cc3)CC2)CN1c1ccc(C#N)c(Cl)c1 (some centres unmarked) [Cpd. No. 502]: 32

Which value of F has been reported for C[C@H]1CC2(CCN(c3ccc(C(=O)N4CCN(CC5CN(c6ccc7c(c6)C(=O)N(C6CCC(=O)NC6=O)C7=O)C5)CC4)cc3F)CC2)CN1c1ccc(C#N)c(Cl)c1 (some centres unmarked) [Cpd. No. 528] in the records?
33

---

Vd overview
Assay: Mouse PK studies after oral and IV dosing
Assay type: in vivo
Conditions: in vivo, iv, 1 mg/kg, IV, dose 1 mg/kg, read-out: IV VSS
API: value field is a number in L/kg; no unit string.

Take a look at these entries with their results.
• C[C@H]1CC2(CCN(c3ccc(C(=O)N4CCN(C5CN(c6cc7c(cc6F)C(=O)N(C6CCC(=O)NC6=O)C7=O)C5)CC4)cc3)CC2)CN1c1ccc(C#N)c(Cl)c1 (some centres unmarked) = 1.58
• C[C@H]1CC2(CCN(c3ccc(C(=O)N4CC[C@@H](CN5CCN(c6ccc7c(c6)C(=O)N(C6CCC(=O)NC6=O)C7=O)CC5)C4)cc3)CC2)CN1c1ccc(C#N)c(Cl)c1 (some centres unmarked) = 25.3
• C[C@H]1CC2(CCN(c3ccc(C(=O)N4CCN(CC5CN(c6ccc7c(c6)C(=O)N(C6CCC(=O)NC6=O)C7=O)C5)CC4)cc3F)CC2)CN1c1ccc(C#N)c(Cl)c1 (some centres unmarked) = 5.7
• C[C@H]1CC2(CCN(c3ccc(C(=O)N4CCN(CC5CCN(c6cc7c(cc6F)C(=O)N(C6CCC(=O)NC6=O)C7=O)CC5)CC4)nn3)CC2)CN1c1ccc(C#N)c(Cl)c1 (some centres unmarked) = 6.76

Which value of Vd has been reported for C[C@H]1CC2(CCN(c3ccc(C(=O)N4CCN(C5CCN(c6cc7c(cc6F)C(=O)N(C6CCC(=O)NC6=O)C7=O)CC5)CC4)cc3)CC2)CN1c1ccc(C#N)c(Cl)c1 (some centres unmarked) in the records?
0.96

---

Test: Mouse PK studies after oral and IV dosing
Assay type: in vivo
Conditions: in vivo, iv, 1 mg/kg, IV, dose 1 mg/kg, read-out: IV VSS
Readout name: Vd (L/kg)
API: value field is a number in L/kg; no unit string.

Take a look at these entries with their results.
- C[C@H]1CC2(CCN(c3ccc(C(=O)N4CCC(CN5CCN(c6cc7c(cc6F)C(=O)N(C6CCC(=O)NC6=O)C7=O)CC5)CC4)cc3)CC2)CN1c1ccc(C#N)c(Cl)c1 (stereo partly drawn) [Cpd. No. 444]: 1.2
- C[C@H]1CC2(CCN(c3cnc(C(=O)N4CCC(CN5CCN(c6ccc7c(c6)C(=O)N(C6CCC(=O)NC6=O)C7=O)CC5)CC4)cn3)CC2)CN1c1ccc(C#N)c(Cl)c1 (stereo partly drawn) [Cpd. No. 492]: 7.71

Now take the following compound into account.
Which value of Vd has been reported for C[C@H]1CC2(CCN(c3cnc(C(=O)N4CCC(CN5CCN(c6cc7c(cc6F)C(=O)N(C6CCC(=O)NC6=O)C7=O)CC5)CC4)cn3)CC2)CN1c1ccc(C#N)c(Cl)c1 (stereo partly drawn) [Cpd. No. 493] in the records?
4.12
